# system-under-test: MetNI (Escherichia coli, UniProt P30750, N295A)
# Construct: DDM-solubilized full MetNI transporter (MetN2MetI2), His-tag purified, prepared as previously described; with D-methionine transport system permease protein MetI
# Sequence (P31547 whole entry): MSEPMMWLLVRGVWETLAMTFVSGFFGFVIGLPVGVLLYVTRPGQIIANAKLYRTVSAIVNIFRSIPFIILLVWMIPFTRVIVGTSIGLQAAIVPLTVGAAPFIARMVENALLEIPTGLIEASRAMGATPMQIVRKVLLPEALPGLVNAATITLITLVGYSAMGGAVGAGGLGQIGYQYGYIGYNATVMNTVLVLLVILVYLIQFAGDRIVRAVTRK
# Sequence (P30750 whole entry N295A): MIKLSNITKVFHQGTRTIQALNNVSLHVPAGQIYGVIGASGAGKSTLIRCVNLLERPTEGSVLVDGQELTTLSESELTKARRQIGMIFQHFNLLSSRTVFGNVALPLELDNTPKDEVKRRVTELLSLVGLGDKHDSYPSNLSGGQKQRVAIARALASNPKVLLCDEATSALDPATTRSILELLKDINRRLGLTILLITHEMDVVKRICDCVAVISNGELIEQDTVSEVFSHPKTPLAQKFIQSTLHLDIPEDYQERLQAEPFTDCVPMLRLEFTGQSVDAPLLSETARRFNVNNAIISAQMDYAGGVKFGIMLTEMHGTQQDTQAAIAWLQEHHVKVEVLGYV
# assay-details: ATPase inhibition, EnzChek phosphate assay
metric: pKi
Expect pKi as a plain number equal to -log10 of the molar concentration.

Using the record for `CSCC[C@H](N)C(=O)O` , report its pKi.
2.48

Alright, here's another compound for you.
Tell me the measured pKi of `CSCC[C@@H](N)C(=O)O` , please.
2.62

###

Measured Kd of individual entries
# system-under-test: MetQ (Escherichia coli, UniProt P28635, N229A)
# Construct: secreted, non-lipidated periplasmic MetQ, C-terminal 6xHis, from E. coli BL21(DE3) Gold
# assay-details: isothermal titration calorimetry
# Assay type: binding
The reply should contain only the number, in µM.

Value lookup for Kd; key = `CSCC[C@H](N)C(=O)O`
300

Alright, here's another molecule for you.
Need Kd, item `CSCC[C@@H](N)C(=O)O`
110

###

Recorded Kd by entry
# system-under-test: MetQ (Escherichia coli)
# Construct: secreted, non-lipidated periplasmic MetQ, C-terminal 6xHis, from E. coli BL21(DE3) Gold
# Sequence (P28635 23-271): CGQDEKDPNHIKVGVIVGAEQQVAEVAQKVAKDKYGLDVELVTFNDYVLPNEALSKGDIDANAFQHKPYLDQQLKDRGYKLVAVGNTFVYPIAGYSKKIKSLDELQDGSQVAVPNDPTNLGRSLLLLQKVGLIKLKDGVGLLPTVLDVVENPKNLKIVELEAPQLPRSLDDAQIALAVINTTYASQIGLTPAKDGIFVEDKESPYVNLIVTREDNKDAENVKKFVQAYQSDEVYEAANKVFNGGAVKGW
# assay-details: isothermal titration calorimetry
Give the number; µM is assumed, so skip it.

Recorded Kd for `CSCC[C@@H](N)C(=O)O` with MetQ (Escherichia coli), please?
6.6

Others:
Under MetQ (Escherichia coli): Kd value of `CSCC[C@H](N)C(=O)O` ?
0.0066

###

As an illustration, consider measured pKi for molecules on MetNI (Escherichia coli, UniProt P30750).
Sequence (P30750 whole entry, one chain of several): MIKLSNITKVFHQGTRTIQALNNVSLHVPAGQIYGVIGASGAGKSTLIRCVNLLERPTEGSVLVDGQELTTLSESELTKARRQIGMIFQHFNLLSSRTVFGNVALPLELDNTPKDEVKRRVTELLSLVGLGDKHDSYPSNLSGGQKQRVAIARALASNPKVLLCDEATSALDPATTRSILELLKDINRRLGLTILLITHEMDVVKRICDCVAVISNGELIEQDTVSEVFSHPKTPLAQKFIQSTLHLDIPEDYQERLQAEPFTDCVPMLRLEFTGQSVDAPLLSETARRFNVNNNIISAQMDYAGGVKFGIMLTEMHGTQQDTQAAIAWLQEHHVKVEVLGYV
pKi here is simply -log10 of the concentration when that concentration is written in mol/L.

Value wanted: pKi (MetNI (Escherichia coli, UniProt P30750)) of entry `CSCC[C@H](N)C(=O)O`
3.92

More entries:
What pKi appears in the records for this molecule with MetNI (Escherichia coli, UniProt P30750)? `CSCC[C@@H](N)C(=O)O`
2.27
